- ASSAY_SUMMARY: Pharmacokinetics in Study Compound 1-002
- Format: in vivo
- SETTINGS: male, human, plasma; single oral doses, healthy men; read-out: mean elimination half-life (converted)
MEASUREMENT_KIND: half-life

• CC(C)n1c(=O)cc(N[C@@H](C)c2ccccc2)[nH]c1=O [Compound 1] = ~192 h

###

- ASSAY_SUMMARY: Parts A and B of the phase 2 trial (PIONEER), pooled findings
- Type: in vivo, human
- SETTINGS: human, plasma, oral; read-out: concentrations associated with excessive pharmacological effect
- Method: This is a phase 2 open-label pilot study to evaluate the efficacy, PK, PD, safety, and tolerability of Compound 1 in subjects with symptomatic HCM and LVOT obstruction. Approximately 10 adult subjects with symptomatic HCM, a resting LVOT gradient ≥30 mm Hg, and post-exercise peak LVOT gradient ≥50 mm Hg will be enrolled. […] Compound 1 concentrations were measured in human plasma using high pressure liquid chromatography (HPLC) coupled with tandem mass spectrometry (MS/MS). […]
MEASUREMENT_KIND: concentration at 12 weeks

• CC(C)n1c(=O)cc(N[C@@H](C)c2ccccc2)[nH]c1=O [Compound 1] = > 1000 ng/mL
